- Tested on: OVCAR-3 ovarian
- protocol: NCI tumour cell line growth inhibition, 48 h
readout.type: TGI

State the recorded TGI for this entry: `CCOC(=O)Cn1nnc2cc(Nc3c(C)[n+]([O-])c4cc(F)c(OCC)cc4[n+]3[O-])ccc21`
> 100 µM

State the recorded TGI for this entry: `O=C1N[C@@H]2CCC[C@@H]2[C@@H]1c1ccc(Cl)cc1`
> 100 µM

State the recorded TGI for this entry: COc1ccc(C2SC(N)=Nc3c2c(C)nn3C(=O)c2ccc(Cl)cc2)cc1OC (centres undefined)
> 10 µM

State the recorded TGI for this entry: `Cc1cc(S(=O)(=O)Nc2n[nH]c(Nc3ccccc3)n2)c(SCC(=O)O)cc1Cl`
> 100 µM
